For each record, write down the corresponding TGI.
System: M19-MEL melanoma
Experiment: NCI tumour cell line growth inhibition, 48 h

{"compound": "COc1cc2c3cc1Oc1c(OC)c(OC)cc4c1[C@@H](Cc1ccc(O)c(c1)Oc1ccc(cc1)C[C@@H]3N(C)CC2)N(C)CC4", "TGI": "26.2 µM"}
{"compound": "CSCC(CO)NC(=O)/C=C/c1c(C)[nH]c(=O)[nH]c1=O (stereo not given)", "TGI": "> 875 µM"}
{"compound": "CN(C)N=Nc1cccc(C(N)=O)c1", "TGI": "> 100 µM"}
{"compound": "O=S(O)CCCSSSCCCS(=O)O", "TGI": "> 100 µM"}

Let us examine a further case.
Item: O=[N+]([O-])c1ccc(C2SCc3nc4ccccc4n32)cc1 (stereo not given) Test system: M19-MEL melanoma Read-out: TGI Value: ?
> 100 µM

###

Tested on: OVCAR-5 ovarian
Assay: NCI tumour cell line growth inhibition, 48 h
result_type: TGI

{"molecule": "CC(=O)N1C(=O)c2cc3ccccc3cc21", "result": "> 100 µM"}
{"molecule": "OC(CN1CCCC2CCCCC21)c1cc2ccccc2c2ccccc12 (stereo unspecified)", "result": "5.64 µM"}

For each of the items listed, what is its TGI?
1. CN(C)C(=S)/N=c1\ssc(=S)n1Cc1ccco1
2. CC1=CC(C)(C)Nc2ccc(Cc3ccc4c(c3)C(C)=CC(C)(C)N4)cc21
3. CCCCCN(CCCCC)C(=O)[C@H](CCC(=O)O)NC(=O)c1cc2ccccc2[nH]1
4. CC1=NN(c2cccc(Cl)c2)C(=O)/C1=C\C=C\c1ccccc1

> 100 µM
> 100 µM
> 100 µM
7.83 µM

###

Test system: U251 CNS
Experiment: NCI tumour cell line growth inhibition, 48 h
result_type: TGI

{"compound": "CCC[CH2][Sn]([CH2]CCC)([O]C(=O)c1cc(F)ccc1F)[O]C(=O)c1cc(F)ccc1F", "TGI": "2.11 µM"}
{"compound": "O=C(CSC(c1ccccc1)c1ccccc1)N/N=C/c1ccccc1Cl", "TGI": "> 58.4 µM"}
{"compound": "CC(NP(=O)(c1ccccc1)c1ccccc1)c1ccccc1 (centres undefined)", "TGI": "> 100 µM"}

Batch: TGI for all items listed.
1. COc1cc2c(c(OC)c1OC)C(=O)[C@@H](O)[C@H]2NC(N)=O
2. COc1ccc2nc3n(c2c1)C(c1c(F)cccc1F)SC3 (centres undefined)
3. COC(=O)c1ccc(C(=O)OC)c2nc3cc(Cl)ccc3nc12
4. CCCCCCc1cc2cc(-c3cn4c(n3)sc3ccccc34)c(=O)oc2cc1O
5. CCCCCN(CCCCC)C(=O)[C@H](CCC(=O)O)NC(=O)c1cc2ccccc2[nH]1
6. O=C(O/N=c1/ccc(=O)/c(=N\OC(=O)c2ccccc2)c1=O)c1ccccc1
7. OC(CN1CCCC2CCCCC21)c1cc2ccccc2c2ccccc12 (centres undefined)

1: > 100 µM; 2: > 100 µM; 3: > 100 µM; 4: > 100 µM; 5: > 100 µM; 6: > 100 µM; 7: 3.77 µM

Provide reported TGI for each item, in the same order as listed.
1. O=C1C(Cl)=C(Cl)C(=O)N1c1cccc(C(F)(F)F)c1
2. COc1cc(C2c3cc4c(cc3[C@@H](Nc3ccc([N+](=O)[O-])cc3)C3COC(=O)[C@H]23)OCO4)cc(OC)c1O (some centres undefined)
3. CN(c1ccccc1)c1nc(=[N+]2CCCC2)ss1
4. O=C1C=C(NCC(c2ccccc2)c2ccccc2)C(=O)c2ncccc21
5. Cc1cc(S(=O)(=O)NC2=NCCCN2)c(S)cc1Cl
6. O=C(Cn1c(C(=O)/C=C/c2ccc(Cl)cc2)nc2ccccc21)c1ccc(Cl)cc1
7. CCOC(=O)CC(=O)Nc1cccc2sc3ncccc3c(=O)c12
8. C[C@]12CC(C=O)C(=O)C(O)=C1CC[C@@H]1C2CC[C@@]2(C)C1CC[C@]2(C)O (some centres undefined)

> 100 µM
7.69 µM
> 100 µM
11.4 µM
> 100 µM
33.4 µM
> 100 µM
44.9 µM

Sample C[C@@]1(C(=O)O)CCC[C@]2(C)C1CC[C@]13C[C@@](O)(CO)[C@](O)(CC[C@]12O)C3 (some centres undefined) — what was its TGI?
> 100 µM
